test system: Vero E6 infected with SARS-CoV-2; experiment: inhibition of SARS-CoV-2 cytopathic effect; higher = more antiviral protection, active = above 15; details: 8.33 nM; 48 h
quantity: inhibition of SARS-CoV-2 cytopathic effect (%)
Unit % implied. Number only.

OCc1cncc(F)c1 :: 0.14
O=C(O)c1cc(O)c(O)c(O)c1 :: 0.61
C1=N/C2=N/c3ccc(OCCN4CCCC4)c(c3)COC/C=C/COCc3cccc(c3)C(=C1)N2 :: 0.71
O=C(O)CCCCN(CCc1ccccc1OCc1ccc(CCc2ccccc2)cc1)Cc1ccc(C(=O)O)cc1 :: 2.69

Proceeding to the next compound to report its inhibition of SARS-CoV-2 cytopathic effect.
Known value: Vero E6 infected with SARS-CoV-2 inhibition of SARS-CoV-2 cytopathic effect of the compound COc1ccc(CCN(C)CCCC(C#N)(c2cc(OC)c(OC)c(OC)c2)C(C)C)cc1OC (stereo not given) equals 0.76

====

tested on: Vero E6 infected with SARS-CoV-2; experiment: inhibition of SARS-CoV-2 cytopathic effect; higher = more antiviral protection, active = above 15; conditions: 10000 nM; 48 h
In this section, each of the compounds is paired with its reported inhibition of SARS-CoV-2 cytopathic effect.
Unit % implied. Number only.

CON :: -0.96
O=C(Nc1ccc([N+](=O)[O-])cc1O)Nc1ccccc1Br :: -2.06

Proceeding to the next compound to report its inhibition of SARS-CoV-2 cytopathic effect.
Just so you know, measured inhibition of SARS-CoV-2 cytopathic effect for Cc1nnc(NS(=O)(=O)c2ccc(N)cc2)s1 came out at 3.18

====

test system: Vero E6 infected with SARS-CoV-2; experiment: inhibition of SARS-CoV-2 cytopathic effect; higher = more antiviral protection, active = above 15; settings: 10000 nM; 48 h
The categories you may choose from are TRUE = active, FALSE = inactive

Worked examples follow.
CCn1cnc2c(Nc3cccc(Cl)c3)nc(N[C@@H]3CCCC[C@@H]3N)nc21 :: FALSE
CCC[N+]12[C@H](O)[C@@H](CC)[C@@H]3C[C@H]1[C@@H]1N(C)c4ccccc4[C@]14C[C@H]2[C@@H]3[C@H]4O :: FALSE
CCn1c(-c2nonc2N)nc2c(C#CC(C)(C)O)ncc(OC[C@H]3CCCNC3)c21 :: FALSE
CN(C)CC/C=C1/c2ccccc2COc2ccccc21 [doxepin] :: FALSE

Note: attention shifts to another entry.
Enquiry: Each compound tested received a call. Report the one for NC[C@H]1O[C@H](O[C@H]2[C@H](O)[C@@H](O[C@H]3O[C@H](CO)[C@@H](O)[C@H](N)[C@H]3O)[C@H](N)C[C@@H]2N)[C@H](N)[C@@H](O)[C@@H]1O .
Return: FALSE

====

system: Vero E6 infected with SARS-CoV-2; experiment: inhibition of SARS-CoV-2 cytopathic effect; higher = more antiviral protection, active = above 15; details: 10000 nM; 48 h
quantity: inhibition of SARS-CoV-2 cytopathic effect (%)
Unit % implied. Number only.

CC(=O)OCC(=O)[C@@]1(O)CC[C@H]2[C@@H]3CCC4=CC(=O)CC[C@]4(C)[C@H]3[C@@H](O)C[C@@]21C [hydrocortisone-acetate] :: -0.4
NCCc1ccc(O)c(O)c1 [dopamine] :: 0.14
CC(Cc1ccc(O)cc1)NCC(O)c1cc(O)cc(O)c1 (stereo not given) [fenoterol] :: 0.86
CCCCOc1ccc(C(=O)CCN2CCCCC2)cc1 [dyclonine] :: -0.75
CC1(C)CC(Oc2ccc(-c3ccc(-c4cn[nH]c4)cc3O)nn2)CC(C)(C)N1 :: -14.9
COc1ccc(Nc2ncnc3ccc(OC)cc23)cc1 :: -3.12
Cc1cn([C@@H]2C[C@@H](O)[C@H](CO)O2)c(=O)[nH]c1=O [telbivudine] :: 2.12
CC(C)(C)c1ccc(S(=O)(=O)Nc2ccc(Cl)cc2C(=O)c2cc[n+]([O-])cc2)cc1 [vercirnon] :: 1.46

Just so you know, measured inhibition of SARS-CoV-2 cytopathic effect for Nc1ccc2cc3ccc(N)cc3nc2c1 [proflavine-hemisulfate] came out at -8.75

Just so you know, measured inhibition of SARS-CoV-2 cytopathic effect for CC[n+]1c(-c2ccccc2)c2cc(N)ccc2c2ccc(N)cc21 [homidium] came out at 6.13
